These entries and their values trace back to patent US8163756B2.

Target: B-Raf(V599E) kinase (Homo sapiens, UniProt P15056, V600E)
Sequence (P15056 with tags, fused parts or gaps V600E): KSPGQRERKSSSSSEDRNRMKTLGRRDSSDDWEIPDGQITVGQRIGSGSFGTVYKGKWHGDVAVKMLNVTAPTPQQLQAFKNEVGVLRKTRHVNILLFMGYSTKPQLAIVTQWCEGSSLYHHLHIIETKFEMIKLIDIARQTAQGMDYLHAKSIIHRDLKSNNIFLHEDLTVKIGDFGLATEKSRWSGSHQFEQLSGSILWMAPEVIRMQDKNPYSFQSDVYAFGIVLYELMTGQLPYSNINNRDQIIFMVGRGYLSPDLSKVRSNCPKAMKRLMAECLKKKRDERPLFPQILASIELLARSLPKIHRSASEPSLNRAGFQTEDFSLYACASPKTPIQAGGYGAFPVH
Test: B-Raf(V599E) kinase assay B1 (construct 1, MEK1 substrate, coupled spectrophotometric)
Format: biochemical
property-name: IC50 (nM)
Give bare numbers, in nM.

Hey, can you go through the list below and give me IC50 for every item?
1. COc1cccc(-n2nc(C(C)(C)C)cc2NC(=O)Nc2cccc(C#N)c2)c1 [Example 17]
2. CC(C)(C)c1cc(NC(=O)Nc2cccc(F)c2F)n(-c2ccc3c(c2)CCC(=O)N3)n1 [Example 320]
3. CC(C)(C)c1cc(NC(=O)Nc2cc(F)c(F)cc2F)n(-c2ccc3c(c2)CCN3S(C)(=O)=O)n1 [Example 110]
4. CC(C(=O)O)c1cccc(-n2nc(C(C)(C)C)cc2NC(=O)Nc2cccc(Cl)c2Cl)c1 (centres unmarked) [Example 248]
5. CC(C)(C)c1cc(NC(=O)Nc2cccc(Cl)c2Cl)n(-c2ccc3c(c2)C(N)CC3)n1 (centres unmarked) [Example 105]

1: 89; 2: 4.6; 3: 3.4; 4: 8.1; 5: 12

Hey, can you go through the list below and give me IC50 for every item?
1. CC(C)(C)c1cc(NC(=O)Nc2cccc(Cl)c2Cl)n(-c2cccc(CCN)c2)n1 [Example 39]
2. CC(C)(C)c1cc(NC(=O)Nc2cc(F)c(F)cc2F)n(-c2cc(CO)c3ccccc3c2)n1 [Example 64]
3. CC(C)(C)c1cc(NC(=O)Nc2cc(F)c(F)c(F)c2)n(-c2cc(CC(N)=O)c3ccccc3c2)n1 [Example 92]

7.1
3.3
8.2
